System: Human alphaherpesvirus 1
Test: Antiviral activity against HSV1 TK- KOS ACV -induced cytopathogenicity in HEL cells
Type: functional
Settings: Human alphaherpesvirus 1, KOS
value.type: MIC

O=C1O/C(=C\Cn2cc(-c3ccccc3)c(=O)[nH]c2=O)C(O)=C1O    > 100 µM
CC(C)=CCc1cn(C/C=C2\OC(=O)C(OCc3ccccc3)=C2OCc2ccccc2)c(=O)[nH]c1=O    > 4 µM
C#Cc1cn(C/C=C2\OC(=O)C(OCc3ccccc3)=C2OCc2ccccc2)c(=O)[nH]c1=O    > 18 µM
O=C1O/C(=C\Cn2cc(-c3cccs3)c(=O)[nH]c2=O)C(O)=C1O    > 100 µM
C#Cc1cn(C/C=C2\OC(=O)C(O)=C2O)c(=O)[nH]c1=O    > 4 µM

Would you be so kind as to report MIC for each listed record?
1. C=Cc1cn(C/C=C2\OC(=O)C(OCc3ccccc3)=C2OCc2ccccc2)c(=O)[nH]c1=O
2. O=C1O/C(=C\Cn2cc(C#Cc3ccccc3)c(=O)[nH]c2=O)C(O)=C1O

RESULT:
> 18 µM
> 4 µM

QUERY: Consider the compound `O=C1O/C(=C\Cn2cc(-c3ccco3)c(=O)[nH]c2=O)C(O)=C1O` and give its measured MIC.
RESULT: > 100 µM
